- testName: Pharmacokinetics after repeated administration (Q7D×3) to rats
- Type: in vivo
- runConditions: rat, plasma, iv; TH302 in rats, 50 mg/kg Q7D×3, Day 15; read-out: AUC

- molecule: "Cn1c(COP(=O)(NCCBr)NCCBr)cnc1[N+](=O)[O-] [TH302]"
  displayUnit: "ng·h/mL"
  AUC: 3250

###

- testName: Pharmacokinetics after repeated administration (Q7D×3) to rats
- Type: in vivo
- runConditions: rat, plasma, iv; TH302 in rats, 12.5 mg/kg Q7D×3, Day 15; read-out: Cmax
measurementKind: Cmax (ng/mL)

- compoundStructure: "Cn1c(COP(=O)(NCCBr)NCCBr)cnc1[N+](=O)[O-]"
  val: 1210

###

- testName: Pharmacokinetics in Sprague-Dawley rats (single dose i.v. and p.o.)
- Assay type: in vivo, male Sprague-Dawley rats
- runConditions: male, Sprague-Dawley, rat, in vivo, iv, 50 mg/kg, rats, 50 mg/kg i.v. bolus, MEAN; read-out: CL (converted)

- compoundStructure: "Cn1c(COP(=O)(NCCBr)NCCBr)cnc1[N+](=O)[O-]"
  clearance: "98.5 mL/min/kg"

###

- testName: Pharmacokinetics of TH302 in Beagle Dogs (Table 6)
- Assay type: in vivo
- runConditions: female, dog, plasma, intravenous, Females, 32 mg/kg
measurementKind: AUC (ng·h/mL)

- compoundStructure: "Cn1c(COP(=O)(NCCBr)NCCBr)cnc1[N+](=O)[O-]"
  displayUnit: "ng·h/mL"
  val: 9530

###

- testName: Pharmacokinetics in Sprague-Dawley rats (single dose i.v. and p.o.)
- Assay type: in vivo, male Sprague-Dawley rats
- runConditions: male, Sprague-Dawley, rat, in vivo, iv, 1 mg/kg, rats, 1 mg/kg i.v. bolus, MEAN; read-out: CL (converted)
- Protocol: Pharmacokinetic studies were performed in male CD-1 (50 mg/kg i.p. or orally (p.o.)) or female nude mice (50 mg/kg i.v. or i.p.), male Sprague-Dawley rats (1, 5, 20 and 50 mg/kg i.v. and 100 mg/kg, p.o.), beagle dogs (20 mg/kg, i.v.) and cynomologus monkeys (20 mg/kg i.v.). Plasma TH302 concentrations were analyzed using a LC/MS method and the pharmacokinetic parameters computed using a noncompartmental method. Interspecies scaling was performed according to standard methods. […]

- compoundStructure: "Cn1c(COP(=O)(NCCBr)NCCBr)cnc1[N+](=O)[O-]"
  clearance (mL/min/kg): 78.2

###

- testName: Pharmacokinetics after repeated administration (Q7D×3) to dogs
- Format: in vivo
- runConditions: dog, in vivo; TH302 in dogs, 8 mg/kg Q7D×3, Day 15
measurementKind: clearance (mL/min/kg)

- compoundStructure: "Cn1c(COP(=O)(NCCBr)NCCBr)cnc1[N+](=O)[O-]"
  val: 72.5

###

- testName: Pharmacokinetics in cynomolgus monkeys (20 mg/kg i.v.)
- Type: in vivo
- runConditions: cynomolgus monkey, plasma, iv, 20 mg/kg, cynomolgus monkeys, Mean (N=3), read-out: MRT

- compoundStructure: "Cn1c(COP(=O)(NCCBr)NCCBr)cnc1[N+](=O)[O-]"
  displayUnit: "min"
  MRT: 19.8

###

- testName: Pharmacokinetics in cynomolgus monkeys (20 mg/kg i.v.)
- Type: in vivo
- runConditions: cynomolgus monkey, plasma, iv, 20 mg/kg, monkeys

- molecule: "Cn1c(COP(=O)(NCCBr)NCCBr)cnc1[N+](=O)[O-] [TH302]"
  displayUnit: "mL/min/kg"
  clearance: 128

###

- testName: Pharmacokinetics in beagle dogs (20 mg/kg i.v.)
- Assay type: in vivo
- runConditions: dog, plasma, iv, read-out: mean Cl (converted)
- Description: Pharmacokinetic studies were performed in male CD-1 (50 mg/kg i.p. or orally (p.o.)) or female nude mice (50 mg/kg i.v. or i.p.), male Sprague-Dawley rats (1, 5, 20 and 50 mg/kg i.v. and 100 mg/kg, p.o.), beagle dogs (20 mg/kg, i.v.) and cynomologus monkeys (20 mg/kg i.v.). Plasma TH302 concentrations were analyzed using a LC/MS method and the pharmacokinetic parameters computed using a noncompartmental method. Interspecies scaling was performed according to standard methods.

- compoundStructure: "Cn1c(COP(=O)(NCCBr)NCCBr)cnc1[N+](=O)[O-]"
  displayUnit: "mL/min/kg"
  clearance: 54.7

###

- testName: Pharmacokinetics of TH302 in Beagle Dogs (Table 6)
- Format: in vivo
- runConditions: female, dog, plasma, intravenous, Females, 16 mg/kg
measurementKind: Cmax

- compoundStructure: "Cn1c(COP(=O)(NCCBr)NCCBr)cnc1[N+](=O)[O-]"
  measurementKind: "Cmax"
  val: "13700 ng/mL"

###

- testName: Pharmacokinetics in Sprague-Dawley rats (single dose i.v. and p.o.)
- Type: in vivo, male Sprague-Dawley rats
- runConditions: male, Sprague-Dawley, rat, plasma, iv, 5 mg/kg, rats, 5 mg/kg i.v. bolus, MEAN; read-out: Cmax
- Description: Pharmacokinetic studies were performed in male CD-1 (50 mg/kg i.p. or orally (p.o.)) or female nude mice (50 mg/kg i.v. or i.p.), male Sprague-Dawley rats (1, 5, 20 and 50 mg/kg i.v. and 100 mg/kg, p.o.), beagle dogs (20 mg/kg, i.v.) and cynomologus monkeys (20 mg/kg i.v.). Plasma TH302 concentrations were analyzed using a LC/MS method and the pharmacokinetic parameters computed using a noncompartmental method. Interspecies scaling was performed according to standard methods. […]

- compound: "Cn1c(COP(=O)(NCCBr)NCCBr)cnc1[N+](=O)[O-] [TH302]"
  Cmax (ng/mL): 3820

###

- testName: Pharmacokinetics after repeated administration (Q7D×3) to dogs
- Assay type: in vivo
- runConditions: dog, in vivo; TH302 in dogs, 4 mg/kg Q7D×3, Day 15; read-out: Half-Life (converted)
- Source text: These changes were reversible.
measurementKind: half-life (min)

- compound: "Cn1c(COP(=O)(NCCBr)NCCBr)cnc1[N+](=O)[O-] [TH302]"
  val: 16.3

###

- testName: Pharmacokinetics in Sprague-Dawley rats (single dose i.v. and p.o.)
- Format: in vivo, male Sprague-Dawley rats
- runConditions: male, Sprague-Dawley, rat, in vivo, iv; rats, 5 mg/kg i.v. bolus, MEAN; read-out: T1/2 (converted)

- compoundStructure: "Cn1c(COP(=O)(NCCBr)NCCBr)cnc1[N+](=O)[O-]"
  displayUnit: "h"
  half-life: 3.75

###

- testName: Pharmacokinetics of TH302 in Beagle Dogs (Table 6)
- Type: in vivo
- runConditions: female, dog, plasma, intravenous, Females, 4 mg/kg
measurementKind: clearance (mL/min/kg)

- molecule: "Cn1c(COP(=O)(NCCBr)NCCBr)cnc1[N+](=O)[O-] [TH302]"
  displayUnit: "mL/min/kg"
  val: 29.3

###

- testName: Pharmacokinetics after repeated administration (Q7D×3) to dogs
- Assay type: in vivo
- runConditions: dog, plasma, intravenous; TH302 in dogs, 8 mg/kg Q7D×3, Day 15; read-out: Vss

- molecule: "Cn1c(COP(=O)(NCCBr)NCCBr)cnc1[N+](=O)[O-] [TH302]"
  Vd: "1.78 L/kg"

###

- testName: Pharmacokinetics of TH302 in Beagle Dogs (Table 6)
- Assay type: in vivo
- runConditions: female, dog, plasma, intravenous, Females, 16 mg/kg, read-out: Vss
measurementKind: Vd (L/kg)

- compoundStructure: "Cn1c(COP(=O)(NCCBr)NCCBr)cnc1[N+](=O)[O-]"
  val: 0.874

###

- testName: Pharmacokinetics in Sprague-Dawley rats (single dose i.v. and p.o.)
- Type: in vivo, male Sprague-Dawley rats
- runConditions: male, Sprague-Dawley, rat, plasma, iv, 5 mg/kg, rats, 5 mg/kg i.v. bolus, individual animals; read-out: Cmax
measurementKind: Cmax (ng/mL)

- compoundStructure: "Cn1c(COP(=O)(NCCBr)NCCBr)cnc1[N+](=O)[O-]"
  val: 3840

###

- testName: Pharmacokinetics after repeated administration (Q7D×3) to dogs
- Format: in vivo
- runConditions: dog, plasma, intravenous; TH302 in dogs, 8 mg/kg Q7D×3, Day 15; read-out: Cmax
measurementKind: Cmax (ng/mL)

- compound: "Cn1c(COP(=O)(NCCBr)NCCBr)cnc1[N+](=O)[O-] [TH302]"
  measurementKind: "Cmax"
  val: 3650

###

- testName: Pharmacokinetics in Sprague-Dawley rats (single dose i.v. and p.o.)
- Format: in vivo, male Sprague-Dawley rats
- runConditions: male, Sprague-Dawley, rat, plasma, iv, 50 mg/kg, rats, 50 mg/kg i.v. bolus, individual animals; read-out: CL (converted)

- compoundStructure: "Cn1c(COP(=O)(NCCBr)NCCBr)cnc1[N+](=O)[O-]"
  clearance: "94.3 mL/min/kg"

###

- testName: Pharmacokinetics in cynomolgus monkeys (20 mg/kg i.v.)
- Format: in vivo
- runConditions: cynomolgus monkey, plasma, iv, 20 mg/kg, cynomolgus monkeys, Mean (N=3), read-out: Vss

- compoundStructure: "Cn1c(COP(=O)(NCCBr)NCCBr)cnc1[N+](=O)[O-]"
  Vd: "2.92 L/kg"
